- Assay text: Toxicity liver stage against HepG2, at 10uM
- Type: cell-based
- Set-up: test concentration 10 uM, cell line HepG2-A16-CD81EGFP
- Condition notes: human, HepG2-A16-CD81EGFP cells; read-out: INHIBITION
Measured cytotoxicity at 10 µM, listed per entry for reference.

Compound: Cc1cccc(N2CCC3(CCCN3Cc3cnn(C)c3C)CC2)n1
Unit text: %
cytotoxicity at 10 µM: -2.35
//
Compound: O=C1[C@@H]2CCN(Cc3ccoc3)C[C@@H]2OCCN1c1cccnc1
Unit text: %
cytotoxicity at 10 µM: -74.6
//
Compound: Cc1ccc(S(=O)(=O)N2CCN(CCC(N)=O)CC2)s1
Unit text: %
cytotoxicity at 10 µM: -9.88
//
Compound: O=C(NCc1ccccc1F)NCC(O)c1cccc(F)c1 (stereo unspecified)
Unit text: %
cytotoxicity at 10 µM: -2.95
//
Compound: CCOCC(O)CN1CCN(C(=O)Cc2ccccc2Cl)CC1 (stereo unspecified)
Unit text: %
cytotoxicity at 10 µM: -1.19
//
Compound: CC(C)CC(=O)N1CCc2nc(N3CCOCC3)nc(NC(C)C)c2C1
Unit text: %
cytotoxicity at 10 µM: 2.86
//
Compound: CCc1[nH]c2c(CNc3nc(C)cc(NC)n3)cc(C)cc2c1C
Unit text: %
cytotoxicity at 10 µM: -22.4
//
Compound: Cc1csc(N2CCN(C(=O)C(C)n3cncn3)CC2)n1 (stereo unspecified)
Unit text: %
cytotoxicity at 10 µM: 0.652
//
Compound: CN(Cc1ccco1)C(=O)CN1C(=O)c2ccccc2C1=O
Unit text: %
cytotoxicity at 10 µM: -2.96
//
Compound: Cc1ccc(C(=O)N2CCN(CC(C)O)CC2)cc1S(C)(=O)=O (stereo unspecified)
Unit text: %
cytotoxicity at 10 µM: -2.96
//
Compound: CC(=O)NCC1CCN(C(=O)NCc2ccc3c(c2)OCCO3)CC1
Unit text: %
cytotoxicity at 10 µM: -7.11
